test system: MS2 coat protein; test: apparent KD of MS2 coat protein; designed switch direction (-1 OFF switch, 1 ON switch): 1; higher = weaker reporter binding; details: Eterna round: R95; input ligand: microRNA oligo, concentration not stated
Reported apparent KD of MS2 coat protein values follow for various sequences
// note: answer is a bare numeric in nM

CGUCGCUGUCGAGAGGAUAUGCGGUGGUGGACAUGAGGAUCACCCAUGUUAGCGAUAGCAUCACGGUAGAAGGCUCUUACGACUG [Soteed Omei mod 25] (puzzle: Same State 2); 18.1
ACAAGCUUUUUAGGAGAGAAAGGAGGGAAACAUGAGGAUCACCCAUGUAUGGUAGUGAAUAGAGGAACUCGUCUUAU [JR_SHM208A_Sub080] (puzzle: Sensor for hsa-mir-208a); 25.6
GACAAUCUAUCUGAGGAUAUCAUGAAGAAAACAUGAGGAUCACCCAUGUGCAGGAUAACUGCAAAUGAGAAGGCAGAUAGAUUGU [Mat - Same State 2 - Mod - D6] (puzzle: Same State 2); 17.8
AACAAUCUAUCUGAGGAUAUCAUGAAAUAAACAUGAGGAUCACCCAUGUGCAGGAAAACUGCAUUUGAGAAGGCAGAUAGAUUGA [salish99_ss2_r3_048] (puzzle: Same State 2); 106

Let us move to another entry and its apparent KD of MS2 coat protein.
Q. Using the record for GGUCCAGCCUGAGCUGGACAAAAGCAUGUACAUGAGGAUCACCCAUGUUCAUGUACAAGCUUUUUGCUCGUCUUAUA [salish99_208a_r3_045] (puzzle: Sensor for hsa-mir-208a) , report its apparent KD of MS2 coat protein.
A. 15.4

====

test system: MS2 coat protein; test: apparent KD of MS2 coat protein; designed switch direction (-1 OFF switch, 1 ON switch): -1; higher = weaker reporter binding; conditions: Eterna round: R98; input ligand: none
Reported apparent KD of MS2 coat protein values follow for various sequences
// note: answer is a bare numeric in nM

UAUAUAAUUAAGAGCUGGAAAAUCACAUGAGGAUCACCCAUGUAGGAUAUCAGCACGAUAAGUGCUGAGAAGGACUACCAGCUC [Denovo 79]; 20
AGACUCAGAUGGUGCCAGCUUGCACAUGAGGAUCACCCAUGUCAGGAUAUCUUCGCUCCGAGAGAAGAGAAGGGACAAGAAUUU [Soedon]; 79.4
AGAUGACAAAGUCAUCUCGCGCAGACAUGAGGAUCACCCAUGUAGGAUAUACUACUCAAAGAGUAGUAGAAGGACAUGUGUCUU [Ex NG2 #57]; 32.5

Q. Using the record for CCAUAAAAGAUCCAAAAUUACAACAUGAGGAUCACCCAUGUGCAGGAUAUCGUGAAAGUAAAGUACGAGAAGGGCAGACACUGC [salish99_ExNG3_r2_008] , report its apparent KD of MS2 coat protein.
A. 154

Q. Using the record for GCACUGGAUGUAGGAUAUCAGGACGAUAAGUCCUGAGAAGGACAUGAGGAUCACCCAUGUGAUAAUACCAGUGCAAAUAAUAUA [Denovo Exng1 26] , report its apparent KD of MS2 coat protein.
A. 19.5

Q. Using the record for AAAUUUAACGAAGGAUAUGCUGACAUGAGGAUCACCCAUGUGUGCCUUGUGUUGCUGCCUCGGGAGCAGAAGGUCGUAUACAUA [Ex NG2 #11] , report its apparent KD of MS2 coat protein.
A. 454

Q. Using the record for UCGAACGGAAACAAAGUCGAUAGACAUGAGGAUCACCCAUGUCAGGAUAUGCCUACUAAAAGUAGGCAGAAGGGACGCGUUCGA [Contusion 7 - Jieux - Exclusion NG 3] , report its apparent KD of MS2 coat protein.
A. 20.8

Q. Using the record for UCAUACAUGACAUGACAUGACAUGAGGAUCACCCAUGUUUACAAGGAUAUGUUGAUGAAACAUCAACAGAAGGUGUAAUGGACU [xclu_NG3_cac7] , report its apparent KD of MS2 coat protein.
A. 136

Q. Using the record for ACAUGGAAUCGAGGAUAUGACGCGGAAACGAAGUCAGAAGGCGAAAAUUUAACUCGAUAAUACAUGAGGAUCACCCAUGUAAUU [AK-NGROCr2-ExNG1-3] , report its apparent KD of MS2 coat protein.
A. 19.7
